# Experimental Target: human GLP-1R (human, UniProt P43220 24-463)
# Procedure Text: cell-based or functional assay
Bridges are numbered along the chain shown (N, C = ends). Where no end group is shown, it is not given here. [ ]: non-standard residue; d: D form. L4A = not defined here; K0 = not defined here; K4 = not defined here; K5 = not defined here
Bucketed by reported EC50 cAMP 0% FBS, buckets being lower bin = under 0.2 nM, middle bin = from 0.2 nM up to 2 nM, upper bin = 2 nM and over

{"columns": ["Binder", "Cat"],
 "data": [
  ["H[dS]QGTFTSDYSKYLDEKAAKEFIKWLLRA (linker 17-24 via K4; reading uncertain) [Conjugate 123]", "upper bin"]
]}

Determine which band this binder sits in: HXQGTFTSDYSKYLDKKAAKEFKQWLLNGPSSGAPPPS (staple K4 on Lys 16, 23; Aib 2) [Conjugate 128] upper bin

State the band of H[dS]QGTFTSDYSKYLDEKAAKEFIKWLLNGGPSSGAPPPS (linker 17-24 via K0; ends not checked) [Conjugate 124] lower bin

Category of H[dS]QGTFTSDYSKYLDEKAAKEFIKWLLNGGPSSGAPPPS (linker 17-24 via K5; ends not checked) [Conjugate 121] , please. middle bin

Lab log: H[dS]QGTFTSDYSKYLDEKAAKEFIKWLLNGGPSSGAPPPS (linker 17-24 via K4; ends not checked) [Conjugate 122] — assign EC50 cAMP 0% FBS category lower bin

Hi, small favor: classify H[dS]QGTFTSDYSKYLDECAAKEFICWLLRA (linker 17-24 via L4A; reading uncertain) [Conjugate 136] by its EC50 cAMP 0% FBS when you get a moment. upper bin

Lab note: sort HXQGTFTSDYSKYLDSKKAQEFVKWLLNGPSSGAPPPS (staple K4 on Lys 17, 24; Aib 2) [Conjugate 127] into the matching EC50 cAMP 0% FBS band. lower bin

State the class of the binder shown: HXQGTFTSDYSKYLDKKKAKEFKQWLLNXGRNRNNIA (staple K4 on Lys 16, 23; Aib 2, 29) [Conjugate 129] upper bin

Just checking, what class would you give HXQGTFTSDYSKYLDEKAAKEFIKWLLNGRNRNNIA (staple K4 on Lys 17, 24; Aib 2) [Conjugate 125] here? middle bin
